tgt: recombinant human latent myostatin (human, UniProt O14793 24-375, biotinylated (in the Octet pH assay only))
assayDetails: cell-based or functional assay
observable: mTLL2 IC50
Respond with a number, then the unit of measure.

Data point: Ab102 (antibody, human IgG4 S228P, kappa, V domains shown) VH: EVQLVESGGGLVQPGGSLRLSCAASGFTFTSYGMSWVRQAPGKGLELVASITGSGGETYYPDSVKGRFTISRDNAKNSLYLQMNSLRAEDTAVYYCARDLLVRFLEWSHYYGMDVWGQGTTVTVSS VL: DIVMTQSPLSLPVTPGEPASISCRSSQSLLHSSGHNFLHWYLQKPGQSPQLLIYETSNRAPGIPDRFSGSGSGTDFTLKISRVEAEDVGVYYCMQATQFPRPFGGGTKVEIKR ; mTLL2 IC50 = 0.346 nM

Data point: Ab132 (antibody, human IgG4 S228P, kappa, V domains shown) VH: EVQLVESGGGLVQPGGSLRLSCAASGFTFSSYGMSWVRQAPGKGLELVASFTGSGGTYYPDSVKGRFTISRDNAKNSLYLQMNSLRAEDTAVYYCARDLLIRFLEWSHYYGMDVWGQGTTVTVSS VL: DIVMTQSPLSLPVTPGEPASISCRSSQSLLHSSGHNFLHWYLQKPGQSPQLLIYEVSNRVSGVPDRFSGSGSGTDFTLKISRVEAEDVGVYYCQQQTQYPPTFGGGTKVEIKR ; mTLL2 IC50 = 0.144 nM

Data point: Ab133 (antibody, human IgG4 S228P, kappa, V domains shown, human IgG4 in the EM experiment; also called Ab133 Human IgG4) VH: EVQLVESGGGLVQPGGSLRLSCAASGFTFSSYGMSWVRQAPGKGLELVASFTGSGGAYYPDSVKGRFTISRDNAKNSLYLQMNSLRAEDTAVYYCARDLLIRFLEWSHYYGMDVWGQGTTVTVSS VL: DIVMTQSPLSLPVTPGEPASISCRSSQSLLHSSGHNFLHWYLQKPGQSPQLLIYEVSNRVSGVPDRFSGSGSGTDFTLKISRVEAEDVGVYYCQQQTQYPGTFGGGTKVEIKR ; mTLL2 IC50 = 0.161 nM

Recorded values, source patent US20260209325A1.
